As an illustration, consider measured IC50 for molecules on Avi-tagged FL MALT-1 (Homo sapiens).

smiles code	test target	IC50
Cn1ncc2cc(NC(=O)c3snc(-c4ccccc4)c3C3CC3)cnc21	Avi-tagged FL MALT-1 (Homo sapiens)	400 to 1000 nM
N#Cc1c(-c2ccccc2)nsc1C(=O)Nc1cnc(-n2nccn2)c(Cl)c1	Avi-tagged FL MALT-1 (Homo sapiens)	400 to 1000 nM
COc1cccc(-c2nsc(C(=O)Nc3ccnc(C(F)(F)F)c3)c2C2CC2)c1	Avi-tagged FL MALT-1 (Homo sapiens)	≤ 400 nM
N#Cc1cc(NC(=O)c2snc(-c3ccccc3)c2C2CC2)cnc1N1CCOCC1	Avi-tagged FL MALT-1 (Homo sapiens)	≤ 400 nM
CN1CCN(c2ncc(NC(=O)c3snc(-c4ccccc4)c3C3CC3)cc2C#N)CC1	Avi-tagged FL MALT-1 (Homo sapiens)	≤ 400 nM
CN1Cc2cc(NC(=O)c3snc(-c4ccccc4)c3C3CC3)ccc2C1=O	Avi-tagged FL MALT-1 (Homo sapiens)	> 2500 nM

# value lookup — system Avi-tagged FL MALT-1 (Homo sapiens), readout IC50, item Cc1noc(C)c1-c1nsc(C(=O)Nc2ccnc(C(F)(F)F)c2)c1C1CC1 ≤ 400 nM

# value lookup — system Avi-tagged FL MALT-1 (Homo sapiens), readout IC50, item O=C(Nc1ccc(C(=O)N2CC(O)C2)nc1)c1snc(-c2ccccc2)c1C1CC1 > 2500 nM

# value lookup — system Avi-tagged FL MALT-1 (Homo sapiens), readout IC50, item Cc1cc(NC(=O)c2snc(-c3ccccc3)c2C2CC2)cnc1-n1ccnn1 ≤ 400 nM

* * *

# test target: Avi-tagged FL MALT-1 (Homo sapiens)
# Sequence (Q9UDY8 1-824): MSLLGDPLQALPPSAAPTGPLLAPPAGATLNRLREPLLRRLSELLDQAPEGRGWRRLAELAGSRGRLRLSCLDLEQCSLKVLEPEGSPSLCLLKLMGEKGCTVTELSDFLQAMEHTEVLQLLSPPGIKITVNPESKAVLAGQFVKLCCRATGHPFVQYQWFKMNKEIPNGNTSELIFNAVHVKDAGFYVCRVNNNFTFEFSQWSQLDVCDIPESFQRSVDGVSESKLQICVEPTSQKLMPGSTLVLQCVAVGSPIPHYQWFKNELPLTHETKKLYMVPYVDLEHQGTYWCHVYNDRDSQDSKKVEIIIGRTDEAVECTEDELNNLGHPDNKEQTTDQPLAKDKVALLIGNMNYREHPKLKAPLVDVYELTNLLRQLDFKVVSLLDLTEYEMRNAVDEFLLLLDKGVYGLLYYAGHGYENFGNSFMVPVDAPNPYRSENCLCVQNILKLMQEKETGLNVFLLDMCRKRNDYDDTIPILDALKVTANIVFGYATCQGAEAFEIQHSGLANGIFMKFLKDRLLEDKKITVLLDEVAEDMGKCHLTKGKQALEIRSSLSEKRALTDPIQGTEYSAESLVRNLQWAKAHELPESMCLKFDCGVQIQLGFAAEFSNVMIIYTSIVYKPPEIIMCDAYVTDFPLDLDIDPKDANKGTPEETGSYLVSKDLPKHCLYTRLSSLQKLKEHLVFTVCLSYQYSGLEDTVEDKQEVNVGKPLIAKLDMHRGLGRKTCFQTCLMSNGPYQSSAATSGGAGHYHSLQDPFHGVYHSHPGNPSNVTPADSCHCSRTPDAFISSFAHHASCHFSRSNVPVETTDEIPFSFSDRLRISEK
pIC50: −log10 of the molar value.
Listing: pIC50 of selected molecules

molecule	reported property	experimental result
N#Cc1cc(NC(=O)c2snc(-c3cccc4ncoc34)c2C2CC2)cnc1-n1nccn1	pIC50	≥ 6.40

Any idea what its pIC50 is? The molecule is O=C(Nc1cnc(-n2nccn2)c(Cl)c1)c1nsc(-c2ccccc2)c1C(F)(F)F ≥ 6.40
